Details: human, in vivo
Property Label: increase of exposure (AUC) by food

Compound	increase of exposure (AUC) by food
COc1c(-c2ccc3cc(NS(C)(=O)=O)ccc3c2)cc(-n2ccc(=O)[nH]c2=O)cc1C(C)(C)C [Compound 2]	≤ 53%

For each listed entry, give its increase of exposure (AUC) by food.
1. Cc1cnc(C(=O)N[C@H]2CCCCC/C=C\[C@@H]3C[C@@]3(C(=O)NS(=O)(=O)C3CC3)NC(=O)[C@@H]3C[C@@H](Oc4nc5ccccc5c5ccccc45)CN3C2=O)cn1 [Compound 1]
2. CC(C)c1nc(CN(C)C(=O)N[C@H](C(=O)N[C@@H](Cc2ccccc2)C[C@H](O)[C@H](Cc2ccccc2)NC(=O)OCc2cncs2)C(C)C)cs1 [ritonavir, reference compound]

A:
≤ 367%
≤ 63%

Data credit: patent US20160074462A1
